The measurements presented in this section are drawn from patent US12528791B2.

Quick list: THRβ-Selectivity per entry.
# SYSTEM NAME: UniProtKB P10828
# Sequence (P10828 217-461 limits assumed): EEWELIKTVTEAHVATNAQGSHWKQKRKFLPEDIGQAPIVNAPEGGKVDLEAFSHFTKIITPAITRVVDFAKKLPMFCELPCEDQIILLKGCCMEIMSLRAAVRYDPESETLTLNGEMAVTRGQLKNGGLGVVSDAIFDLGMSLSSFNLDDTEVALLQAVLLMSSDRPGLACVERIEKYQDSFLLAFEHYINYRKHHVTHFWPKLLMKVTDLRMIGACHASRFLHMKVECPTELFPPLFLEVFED
# Type: biochemical
# CONDITION DETAILS: TR-FRET assay; THR beta over THR alpha, derived from T3-selectivity normalized data
Output spec: single numeric token, no unit.

Study these solved cases before continuing.
COMPOUND: Cn1cnc2ccc(Oc3c(Cl)cc(-n4nc(C#N)c(=O)[nH]c4=O)cc3Cl)cc21 [Example 19]
THRβ-Selectivity: 38.0
--
COMPOUND: O=C(Nc1cc(Cl)c(Oc2ccc3nc(C4CC4)ccc3c2)c(Cl)c1)c1noc(=O)[nH]1 [Example 24]
THRβ-Selectivity: 8.1

Next:
Look at this compound and give its reported THRβ-Selectivity. Cc1n[nH]c2ccc(Oc3c(Cl)cc(-n4nc(C#N)c(=O)[nH]c4=O)cc3Cl)cc12 [Example 3]
32.0
